target: JNK3(h) (Homo sapiens); assay: Kinase Profiling Assay; assay type: biochemical; settings: 100 μM peptide
Sequence (P53779 whole entry): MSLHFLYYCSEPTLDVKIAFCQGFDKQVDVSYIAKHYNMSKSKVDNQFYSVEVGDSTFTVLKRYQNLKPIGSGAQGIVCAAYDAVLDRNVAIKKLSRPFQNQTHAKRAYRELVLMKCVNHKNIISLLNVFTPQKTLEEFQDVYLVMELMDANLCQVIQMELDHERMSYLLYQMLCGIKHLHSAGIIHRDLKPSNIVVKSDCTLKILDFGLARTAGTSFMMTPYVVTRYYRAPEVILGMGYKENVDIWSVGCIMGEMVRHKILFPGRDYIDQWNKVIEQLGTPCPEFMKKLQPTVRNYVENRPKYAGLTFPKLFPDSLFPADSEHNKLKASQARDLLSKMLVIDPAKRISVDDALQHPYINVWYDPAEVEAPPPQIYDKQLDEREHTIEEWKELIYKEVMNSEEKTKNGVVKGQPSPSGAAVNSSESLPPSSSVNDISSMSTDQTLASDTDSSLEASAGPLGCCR
Kindly supply the reported JNK3(h) % activity values for the records listed here.
Record the result as a number with its unit.

## Task Kindly state the measured JNK3(h) % activity obtained for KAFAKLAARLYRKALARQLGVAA [MMI-0400] with JNK3(h) (Homo sapiens).
## Result 70%

## Task What do you have for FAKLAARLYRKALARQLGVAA [MMI-0300] ?
## Result 89%

## Task What do you have for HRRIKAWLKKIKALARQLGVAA (Mammalian) [MMI-0500] ?
## Result 171%

## Task What do you have for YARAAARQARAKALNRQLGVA (Mammalian) [MMI-0200] ?
## Result 90%

# credit: patent US10562947B2
